Each entry below carries its reported Kd.
subject-of-test: T1, recombinant human cardiac troponin T (human, UniProt P45379 2-298)
T1 construct: In the ECL assay the cTnT came from the Troponin T hs CalSet calibrator; also called cTnT; TnT
assay-comment: SPR (Biacore T200, 37 C), Fab captured, cTnT analyte
Numbers only here, please. The scale is nM.

The cases that follow already have their Kd on record.
stdin: Supply reported Kd belonging to this binder: anti-cTnT Fab mutant 13 (Y34I, F60W, V101Y + Y104F) (Fab, V domains shown, also called combination 13) VH: EVQLQQSGPELVKPGASVKMSCKASGYTFTDYIMKWVKQSHGKSLEWIGDINPNNGETWYNQKFKDKATLTVDKSSSTAYMQLNSLTSEDSAVYYCATRYFDFWGQGTTLTVSS VL: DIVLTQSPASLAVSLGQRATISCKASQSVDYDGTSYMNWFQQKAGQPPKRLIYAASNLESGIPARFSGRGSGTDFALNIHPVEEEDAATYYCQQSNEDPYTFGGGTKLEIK
stdout: 0.62

stdin: Supply reported Kd belonging to this binder: anti-cTnT Fab mutant 9 (Y34I) (Fab, V domains shown, also called combination 9) VH: EVQLQQSGPELVKPGASVKMSCKASGYTFTDYIMKWVKQSHGKSLEWIGDINPNNGETFYNQKFKDKATLTVDKSSSTAYMQLNSLTSEDSAVYYCATRVFDYWGQGTTLTVSS VL: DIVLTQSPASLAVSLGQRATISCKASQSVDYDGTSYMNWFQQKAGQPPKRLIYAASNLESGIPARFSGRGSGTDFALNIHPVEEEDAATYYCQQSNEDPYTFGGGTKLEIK
stdout: 1.2

stdin: Supply reported Kd belonging to this binder: anti-cTnT Fab mutant 21 (F60W, V101Y) (Fab, V domains shown, also called combination 21) VH: EVQLQQSGPELVKPGASVKMSCKASGYTFTDYYMKWVKQSHGKSLEWIGDINPNNGETWYNQKFKDKATLTVDKSSSTAYMQLNSLTSEDSAVYYCATRYFDYWGQGTTLTVSS VL: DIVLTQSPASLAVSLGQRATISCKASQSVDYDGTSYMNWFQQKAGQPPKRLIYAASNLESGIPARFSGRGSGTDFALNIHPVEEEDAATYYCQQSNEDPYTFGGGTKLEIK
stdout: 1.6

Now look at this one.
stdin: Supply reported Kd belonging to this binder: anti-cTnT Fab mutant 2 (Y34F, F60W) (Fab, V domains shown, also called combination 2) VH: EVQLQQSGPELVKPGASVKMSCKASGYTFTDYFMKWVKQSHGKSLEWIGDINPNNGETWYNQKFKDKATLTVDKSSSTAYMQLNSLTSEDSAVYYCATRVFDYWGQGTTLTVSS VL: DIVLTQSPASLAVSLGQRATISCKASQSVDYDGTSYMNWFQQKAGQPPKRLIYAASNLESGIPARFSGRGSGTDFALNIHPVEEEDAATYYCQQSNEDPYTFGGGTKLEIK
stdout: 0.46
